# TARGET_UNDER_TEST: Epidermal growth factor receptor (Homo sapiens)
# PROTOCOL_DETAILS: compounds binding epidermal growth factor receptor – biochemical, small-molecule microarray, 635 nm fluorescence, primary screen (AID 1104);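 note: score merges 667 nm emission intensity with spot signal to noise over triplicate slides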
# EXPERIMENTAL_PARAMETERS: EGFR binding, higher = more signal
Recorded composite z-score for the following compounds
# respond with the number and nothing more

Task: # return recorded composite z-score for entry "CCCNC(=O)[C@@H]1c2ccccc2C(=O)N(Cc2ccc(OC(F)(F)F)cc2)[C@H]1c1ccc(CO)cc1"
Output: -0.0259

Next:
Task: Supply recorded composite z-score for "CCCN1C(=O)[C@]2(Cc3ccccc31)N=C(c1ccc(OCCCO)cc1)O[C@@H]2c1ccccc1" here.
Output: -0.489

Task: Please give the documented composite z-score of "COC(=O)[C@]1(CCS(=O)(=O)c2ccccc2)N=C(c2ccc(OCCCO)cc2)O[C@@H]1c1ccccc1N=[N+]=[N-]"
Output: 0.416

Task: Using known records, supply composite z-score for "CCOC(=O)C[C@H]1[C@H](OC(=O)c2ccc(C(=O)c3ccccc3)cc2)[C@@H](NC(=O)c2ccc(-c3ccccc3)cc2)c2cc(OCCCO)ccc2N1C(=O)Cc1ccc(OC)cc1"
Output: -0.274

Task: Respond only with composite z-score recorded for CS(=O)(=O)CCOC(=O)C1=CC(CCCO)=CC(c2ccc(CN3CCCC3)cc2)N(Cc2sc3ccccc3c2Cl)C=C1C(=O)OCCS(C)(=O)=O (configuration not stated)
Output: 0.558

Task: Let me know recorded composite z-score for "C=C[C@@H](OC)[C@H](OC(=O)Nc1ccc(OC)cc1)c1ccc(O)c(F)c1" , thanks.
Output: -0.459

====

# TARGET_UNDER_TEST: Focal adhesion kinase 1 (Homo sapiens) (UniProt Q05397)
# Sequence (Q05397 whole entry, looked up): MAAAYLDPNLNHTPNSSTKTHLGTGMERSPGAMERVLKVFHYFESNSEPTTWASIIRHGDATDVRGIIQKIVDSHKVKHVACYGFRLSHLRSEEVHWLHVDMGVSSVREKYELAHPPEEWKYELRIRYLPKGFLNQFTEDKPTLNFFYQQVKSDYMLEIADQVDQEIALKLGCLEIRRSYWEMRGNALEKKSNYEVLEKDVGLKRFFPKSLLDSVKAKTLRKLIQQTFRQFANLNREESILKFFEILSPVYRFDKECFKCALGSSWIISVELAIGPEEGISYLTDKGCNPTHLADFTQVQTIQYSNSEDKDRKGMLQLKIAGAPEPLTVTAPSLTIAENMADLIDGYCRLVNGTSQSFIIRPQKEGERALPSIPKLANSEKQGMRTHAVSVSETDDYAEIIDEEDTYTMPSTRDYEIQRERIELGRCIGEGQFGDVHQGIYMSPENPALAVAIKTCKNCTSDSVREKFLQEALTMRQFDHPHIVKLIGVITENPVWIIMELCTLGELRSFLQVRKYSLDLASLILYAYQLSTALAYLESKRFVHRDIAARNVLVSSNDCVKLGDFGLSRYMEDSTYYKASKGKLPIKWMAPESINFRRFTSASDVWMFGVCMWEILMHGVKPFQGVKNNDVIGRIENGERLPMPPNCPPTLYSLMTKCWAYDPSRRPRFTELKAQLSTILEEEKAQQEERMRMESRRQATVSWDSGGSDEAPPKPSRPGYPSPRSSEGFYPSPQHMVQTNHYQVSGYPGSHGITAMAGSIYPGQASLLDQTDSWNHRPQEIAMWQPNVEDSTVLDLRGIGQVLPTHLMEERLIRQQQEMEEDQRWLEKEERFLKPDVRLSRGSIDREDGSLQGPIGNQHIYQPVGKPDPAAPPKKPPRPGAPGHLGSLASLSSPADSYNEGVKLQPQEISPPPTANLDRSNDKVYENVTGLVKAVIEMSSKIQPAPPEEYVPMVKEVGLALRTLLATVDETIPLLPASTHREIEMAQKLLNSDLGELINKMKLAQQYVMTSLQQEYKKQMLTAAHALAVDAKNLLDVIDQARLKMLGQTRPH
# PROTOCOL_DETAILS: PTK2 protein binding on printed compound slides – biochemical, small-molecule microarray, 635/667 nm fluorescence, BSA, DTT, primary screen (AID 1130);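 note: composite of spot emission at 667 nm and signal to noise over triplicate slides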
# EXPERIMENTAL_PARAMETERS: 635 nm fluorescence, higher = more signal
Overview of reported composite z-score across a group of compounds:
Respond with the number and no other words.

Some entries whose results are on file:
Task: Using known records, supply composite z-score for "CC1=C2[C@@H](CCc3ccccc3)OB(O)C[C@@H]2[C@@H]2C(=O)N(Cc3ccccc3)C(=O)[C@@H]2C1"
Output: -0.0683

Task: Provide composite z-score value for the following compound: O=C1C2C=CC(C(O)c3cccc(O)c3)N(Nc3ccc([N+](=O)[O-])cc3)C2C(=O)N1c1ccccc1 (centres undefined)
Output: 0.264

Task: Recall and state the measured composite z-score for "CC[C@@H]1O[Si](C(C)C)(C(C)C)c2c1cc(-c1cc(C)c(OC)c(C)c1)nc2-c1ccc(Oc2ccccc2)cc1" .
Output: -0.29

---
Task: Dear colleague, please send me the reported composite z-score for "CCOC(=O)C[C@H]1[C@H](OC(=O)c2ccc(C(=O)c3ccccc3)cc2)[C@@H](NC(=O)CC(C)C)c2cc(OCCCO)ccc2N1C(=O)c1ccccc1" when you can.
Output: 0.188

====

# TARGET_UNDER_TEST: Neurogenic locus notch homolog protein 3 (Homo sapiens)
# PROTOCOL_DETAILS: small molecules binding NOTCH3 protein – biochemical, 635/667 nm fluorescence, primary screen (AID 1096)
# EXPERIMENTAL_PARAMETERS: small-molecule microarray, 635 nm fluorescence, higher = more signal
Parameter composite z-score: see the listing below.
Answer with a bare number; do not write a unit.

Some solved entries appear below for comparison.
Task: Supply measured composite z-score of "CCOC(=O)C=Cc1cccc(C)c1O" in your reply.
Output: -0.0138

Task: Quote composite z-score reported for "CC(C)=C1C(=O)C(c2ccccc2)=C2CN3C(=O)N(CCc4ccccc4)C(=O)[C@]3(Cc3ccc(C(F)(F)F)cc3)[C@H]21" please.
Output: 0.245

Task: Read the entry "COc1ccc(CCNC(=O)[C@@]2(Cc3ccccc3I)c3ccccc3C(=O)N(C3CCCCC3)[C@H]2c2ccc(CO)cc2)cc1" and write its reported composite z-score.
Output: 0.566

Task: State, in one line, measured composite z-score of "COc1cccc(C)c1NC(=O)O[C@H]1[C@H](OC(=O)Nc2ccc3c(c2)OCO3)[C@@H](OC(=O)Nc2ccc3c(c2)OCO3)[C@@H](OC)O[C@@H]1CO"
Output: 1.04

Task: Using the record for "C#CCN([C@@H](Cc1ccccc1)C(=O)OC)[C@@H](/C=C/C1CC1)[C@H](O)Cc1ccccc1" , state its measured composite z-score.
Output: -0.525

Attention now shifts to the item below.
Task: Report composite z-score, nothing else, for this compound: "CC(C)[Si]1(C(C)C)OCc2cc(C3CC3)nc(-c3ccc(Oc4ccccc4)cc3)c21"
Output: -0.488
